- TESTED_ON: Cytochrome P450 2C8 (Homo sapiens, UniProt P10632)
- Sequence (P10632 whole entry): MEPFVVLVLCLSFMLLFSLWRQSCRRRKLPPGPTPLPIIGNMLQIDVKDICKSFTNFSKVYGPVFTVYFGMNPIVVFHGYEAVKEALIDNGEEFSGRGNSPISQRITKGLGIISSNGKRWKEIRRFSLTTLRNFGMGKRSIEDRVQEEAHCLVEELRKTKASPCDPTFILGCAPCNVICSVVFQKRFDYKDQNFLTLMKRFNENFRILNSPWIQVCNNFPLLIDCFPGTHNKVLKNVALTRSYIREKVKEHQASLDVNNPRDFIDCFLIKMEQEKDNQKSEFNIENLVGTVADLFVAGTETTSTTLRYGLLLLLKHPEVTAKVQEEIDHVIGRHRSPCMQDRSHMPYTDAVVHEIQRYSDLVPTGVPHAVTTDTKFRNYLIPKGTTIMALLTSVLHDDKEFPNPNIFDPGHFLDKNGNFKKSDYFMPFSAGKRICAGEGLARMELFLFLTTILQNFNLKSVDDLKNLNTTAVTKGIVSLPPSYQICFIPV
pIC50: −log10 of the molar value.
System: Cytochrome P450 2C8 (Homo sapiens, UniProt P10632) | Read-out: pIC50 | Origin: multiple publications
READOUT_KIND: pIC50

| GIVEN_SMILES | READOUT_KIND | INEQUALITY_SIGN | REPORTED |
| --- | --- | --- | --- |
| N#Cc1ccc(-c2csc(C(=O)Nc3ccc(C(F)(F)F)cc3)n2)cc1 | pIC50 | < | 5.00 |
| O=C(O)c1ccc2nc(Cc3ccc(-c4ccc(F)c(OCc5ccc(Cl)c6ccoc56)n4)cc3F)n(C[C@@H]3CCO3)c2c1 | pIC50 | = | 4.55 |
| Cc1nn(-c2cccnc2)c(C)c1-c1cc(N2CC3CCC(C2)O3)nc2c(-c3ccn[nH]3)cnn12.O=C(O)/C=C/C(=O)O | pIC50 | = | 4.43 |
| Cc1ncsc1-c1ccc([C@H](CN2CCOCC2)NC(=O)[C@@H]2C[C@@H](O)CN2C(=O)[C@@H](n2cc([C@H]3CC[C@H](CN4CCC(c5ccc6c(c5)-n5c(nc(=O)c7c(Cl)cccc75)C65CCCCC5)CC4)CC3)nn2)C(C)(C)C)cc1 | pIC50 | < | 4.00 |
| [2H]C([2H])([2H])NC1=NC(=O)[C@]2(CCc3ncccc32)c2cc(C(C)(F)F)ccc21 | pIC50 | < | 5.00 |
| N#Cc1ccc(COc2cccc(C3CCN(Cc4nc5ccc(C(=O)O)cc5n4C[C@@H]4CCO4)CC3)n2)c(F)c1 | pIC50 | = | 5.48 |
| COc1ccccc1[C@H](Cn1c(=O)n(C(C)(C)C(=O)O)c(=O)c2c(C)c(-c3ncco3)sc21)OC1CCOCC1 | pIC50 | < | 4.52 |
| C[C@H]1CCCN1C(=O)c1nc(C(=O)NCC(C)(C)O)sc1-c1ccc(C(O)(C(F)(F)F)C(F)(F)F)c(Cl)c1Cl | pIC50 | = | 4.74 |
